tested system: Gag-Pol polyprotein (Moloney murine leukemia virus isolate Shinnick, UniProt P03355)
method notes: Inhibition of Moloney murine leukemia virus reverse transcriptase polymerase activity using Td100/Pd18 DNA-DNA substrate incubated for 30 mins by fluorescence assay
measure name: IC50

structure	tested system	measure name	result
O=C1Cc2cc(Cc3ccccc3)ccc2C(=O)N1O	Gag-Pol polyprotein (Moloney murine leukemia virus isolate Shinnick, UniProt P03355)	IC50	3200 nM

Next:
Ask: Fill blank: measured IC50 of the compound NS(=O)(=O)c1ccc(-c2ccc(Cc3ccc4c(c3)CC(=O)N(O)C4=O)cc2)cc1 is ____.
Reply: 2400 nM

###

tested system: Human immunodeficiency virus type 1 reverse transcriptase (Human immunodeficiency virus 1)
method notes: Inhibition of HIV1 recombinant reverse transcriptase polymerase activity using [3H]TTP and poly(rA)-oligo(dT)16 substrate incubated for 20 mins by liquid scintillation spectrometry
measure name: IC50 (µM)
The figure you give is taken to be in µM; do not add the unit.

structure	IC50, µM
NS(=O)(=O)c1ccc(-c2ccc(Cc3ccc4c(c3)CC(=O)N(O)C4=O)cc2)cc1	0.5
O=C1Cc2cc(Cc3ccc(-c4ccc(F)cc4F)cc3)ccc2C(=O)N1O	2
COc1ccc(-c2ccc(Cc3ccc4c(c3)CC(=O)N(O)C4=O)cc2)cc1F	1.9
O=C1Cc2cc(Cc3ccc(F)cc3)ccc2C(=O)N1O	2.3
O=C1Cc2cc(Cc3ccc(-c4cccs4)cc3)ccc2C(=O)N1O	1.5

Next compound, IC50 to be filled in.
Ask: Bench note: what IC50 did O=C1Cc2cc(Cc3ccccc3)ccc2C(=O)N1O show?
Reply: 1.7

###

Property: pIC50; scope: individual molecules
tested system: UniProtKB Q72547
method notes: Inhibition of HIV1 recombinant reverse transcriptase associated catalytically active RNase H domain assessed as reduction in internal cleavage using HTS-1 RNA/DNA duplex substrate by fluorescence assay
Note on pIC50: it is the negative log10 of concentration, concentration in mol/L.

Known pIC50 results, listed for orientation:
structure	pIC50
O=C1Cc2cc(Cc3ccc(-c4ccc(F)cc4)cc3)ccc2C(=O)N1O	5.27
O=C1Cc2cc(Cc3ccc(-c4ccc(F)cc4F)cc3)ccc2C(=O)N1O	5.82
O=C1Cc2cc(Cc3ccc(C(F)(F)F)cc3)ccc2C(=O)N1O	5.82
COc1ccc(-c2ccc(Cc3ccc4c(c3)CC(=O)N(O)C4=O)cc2)cc1F	5.66
N#Cc1ccc(-c2ccc(Cc3ccc4c(c3)CC(=O)N(O)C4=O)cc2)cc1	6.05

Ask: Returns the measured pIC50 for the input molecule. Input: O=C1Cc2cc(Cc3ccc(-c4ccccc4)cc3)ccc2C(=O)N1O
Reply: 6.10

Ask: Moving on to O=C1Cc2cc(Cc3ccc(-c4cccs4)cc3)ccc2C(=O)N1O
Reply: 5.57

Ask: Next molecule: O=C1Cc2cc(Cc3ccc(F)cc3)ccc2C(=O)N1O
Reply: 5.89

Ask: Moving on to O=C1Cc2cc(Cc3ccccc3)ccc2C(=O)N1O
Reply: 5.89

Ask: Same for O=C1Cc2cc(Cc3ccc(C4CC4)cc3)ccc2C(=O)N1O
Reply: 6.22

Ask: Also, NS(=O)(=O)c1ccc(-c2ccc(Cc3ccc4c(c3)CC(=O)N(O)C4=O)cc2)cc1 please.
Reply: 6.40

###

tested system: Human immunodeficiency virus type 1 reverse transcriptase (Human immunodeficiency virus 1, UniProt Q72547, Y181C)
method notes: Inhibition of HIV1 reverse transcriptase Y181C mutant associated RNase H domain activity assessed as reduction in internal cleavage using HTS-1 RNA/DNA duplex substrate by fluorescence assay
measure name: IC50 (nM)
Please reply with the bare figure in nM and do not write the unit itself.

Ask: IC50 for NS(=O)(=O)c1ccc(-c2ccc(Cc3ccc4c(c3)CC(=O)N(O)C4=O)cc2)cc1 ?
Reply: 200
